Origin of values: paper PMC5412445

Reported 96 hpf LOEC is given for each of the following molecules.
test system: wild type zebrafish embryos; assay: in vivo; format: in vivo; settings: embryos incubated 3 to 96 hpf; 5 logarithmic concentrations 0.1 µM to 1 mM; 1% DMSO
Structures can show the parent of a compound that is named as a salt.
Numeric only. Scale: µM

Check out these entries, answers already filled in.
* CC(=O)O[C@@]12CO[C@@H]1C[C@H](O)[C@@]1(C)C(=O)[C@H](O)C3=C(C)[C@@H](OC(=O)[C@H](O)[C@@H](NC(=O)OC(C)(C)C)c4ccccc4)C[C@@](O)([C@@H](OC(=O)c4ccccc4)[C@H]21)C3(C)C | 100.00
* CN1CCN(CCCN2c3ccccc3Sc3ccc(C(F)(F)F)cc32)CC1 [Trifluoperazine HCL, trifluoperazine hydrochloride] | 100
* CN(CCOc1ccc(NS(C)(=O)=O)cc1)CCc1ccc(NS(C)(=O)=O)cc1 [Dofetilide, dofetilide] | 100.00
* Cc1ccc(C(=O)Nc2ccc(S(=O)(=O)O)c3cc(S(=O)(=O)O)cc(S(=O)(=O)O)c23)cc1NC(=O)c1cccc(NC(=O)Nc2cccc(C(=O)Nc3cc(C(=O)Nc4ccc(S(=O)(=O)O)c5cc(S(=O)(=O)O)cc(S(=O)(=O)O)c45)ccc3C)c2)c1 | 1000
* CC[C@]1(O)C[C@H]2CN(CCc3c([nH]c4ccccc34)[C@@](C(=O)OC)(c3cc4c(cc3OC)N(C=O)[C@H]3[C@@](O)(C(=O)OC)[C@H](OC(C)=O)[C@]5(CC)C=CCN6CC[C@]43[C@@H]65)C2)C1 | 100

Lookup: # get_value(readout='96 hpf LOEC', item= `CCOC(=O)Nc1ccc(NCc2ccc(F)cc2)nc1N` )
Found: 100.00

Lookup: One more molecule: CC(C)(C)NC(=O)[C@H]1CC[C@H]2[C@@H]3CC[C@H]4NC(=O)C=C[C@]4(C)[C@H]3CC[C@]12C [Finasteride, finasteride]
Found: 100.00

Lookup: One more molecule: `C[C@]12CC[C@H](O)C[C@H]1CC[C@@H]1[C@@H]2C[C@@H](O)[C@]2(C)[C@@H](C3=CC(=O)OC3)CC[C@]12O`
Found: 1000.00

Lookup: One more molecule: `CCN(CC)c1ccc(C=O)cc1`
Found: 10.00

Lookup: One more molecule: CC(C)NCC(O)COc1cccc2[nH]ccc12 (centres unmarked)
Found: 1000

Lookup: One more molecule: `CC(=O)O[C@H]1C[C@@]2(C)[C@@H](C[C@@H](O)[C@H]3[C@@]4(C)CC[C@@H](O)[C@@H](C)[C@@H]4CC[C@@]32C)/C1=C(\CCC=C(C)C)C(=O)O`
Found: 100.00

----------
system: wild type zebrafish embryos; assay: in vivo; assay type: in vivo; conditions: embryos incubated 3 to 96 hpf; 5 logarithmic concentrations 0.1 µM to 1 mM; 1% DMSO
Where a name gives a salt, the structure may show the parent alone.
experimental endpoint: 96 hpf NOEC (µM)
Numeric only. Scale: µM

Check out these entries, answers already filled in.
• C[C@]12CC[C@H](O)C[C@H]1CC[C@@H]1[C@@H]2C[C@@H](O)[C@]2(C)[C@@H](C3=CC(=O)OC3)CC[C@]12O [Digoxigenin, digoxigenin] = 100.00
• OC[C@H]1OC(O)[C@H](O)[C@@H](O)[C@@H]1O (stereo partly drawn) [D-(+)-glucose] = 1000.00
• [Cl-].[Na+] [NaCl, sodium chloride] = 1000.00
• CN1CCN(CCCN2c3ccccc3Sc3ccc(C(F)(F)F)cc32)CC1 [Trifluoperazine HCL, trifluoperazine hydrochloride] = 10
• N[C@@H](CS)C(=O)O [L-Cysteine, L-cysteine] = 1000.00
• CCOC(=O)Nc1ccc(NCc2ccc(F)cc2)nc1N [Flupirtine, flupirtine] = 10.00
• C[C@](N)(Cc1ccc(O)c(O)c1)C(=O)O [Methyldopa, methyldopa] = 1000.00
• CCN(CC)c1ccc(C=O)cc1 [DEAB, 4-diethylaminobenzaldehyde] = 1.00
• NNC(=O)c1ccncc1 [Isoniazid, isoniazid] = 1000.00

Consider now this further compound.
Lookup: # value lookup — system wild type zebrafish embryos, readout 96 hpf NOEC, item CNCC(O)c1ccc(O)c(O)c1.Cl (racemic) [(±)-Epinephrine HCL, (±)-epinephrine hydrochloride]
Found: 1000.00

----------
experiment: in vivo; assay type: in vivo; conditions: zebrafish, in vivo; mortality; embryos incubated 3 to 96 hpf; 5 logarithmic concentrations 0.1 µM to 1 mM; 1% DMSO
Structures can show the parent of a compound that is named as a salt.
Reported LC50 is given for each of the following compounds.
Numeric only. Scale: µM

Check out these entries, answers already filled in.
- CCOC(=O)Nc1ccc(NCc2ccc(F)cc2)nc1N [Flupirtine, flupirtine]: 136
- CC(C)(C)NC(=O)[C@H]1CC[C@H]2[C@@H]3CC[C@H]4NC(=O)C=C[C@]4(C)[C@H]3CC[C@]12C [Finasteride, finasteride]: 31.6
- CCN(CC)c1ccc(C=O)cc1 [DEAB, 4-diethylaminobenzaldehyde]: 186
- CC(=O)O[C@H]1C[C@@]2(C)[C@@H](C[C@@H](O)[C@H]3[C@@]4(C)CC[C@@H](O)[C@@H](C)[C@@H]4CC[C@@]32C)/C1=C(\CCC=C(C)C)C(=O)O [Fusidic Acid, fusidic acid]: 124
- CN1CCN(CCCN2c3ccccc3Sc3ccc(C(F)(F)F)cc32)CC1 [Trifluoperazine HCL, trifluoperazine hydrochloride]: 31.6
- Cc1ccc(C(=O)Nc2ccc(S(=O)(=O)O)c3cc(S(=O)(=O)O)cc(S(=O)(=O)O)c23)cc1NC(=O)c1cccc(NC(=O)Nc2cccc(C(=O)Nc3cc(C(=O)Nc4ccc(S(=O)(=O)O)c5cc(S(=O)(=O)O)cc(S(=O)(=O)O)c45)ccc3C)c2)c1 [Suramin, suramin]: 197

Consider now this further compound.
Lookup: # get_value(readout='LC50', item= CC[C@]1(O)C[C@H]2CN(CCc3c([nH]c4ccccc34)[C@@](C(=O)OC)(c3cc4c(cc3OC)N(C=O)[C@H]3[C@@](O)(C(=O)OC)[C@H](OC(C)=O)[C@]5(CC)C=CCN6CC[C@]43[C@@H]65)C2)C1 [Vincristine, vincristine] )
Found: 31.6
